# MEASUREMENT TARGET: T1, human LILRB4 extracellular domain (ECD) recombinant protein (human, UniProt Q8NHJ6 22-259)
# T1 construct: extracellular domain; also called LILRB4 ECD; LILRB4-ECD
# ASSAY OVERVIEW: Octet BLI, antibody on protein A sensor, recombinant human LILRB4 in solution
Kd reference
Respond numerically; units are pM and should not be typed.

{"BINDER": "B4-72-2 (antibody, V domains shown, Rabbit monoclonal antibody) VH: EQSVEESGGRLVTPGTPLTLTCTASGFSLSSYYMSWVRQAPGRGLEYIGVINTGGSAVYATWTKGRFTISRTSTTVDLKMTGLTTEDTATYFCARGWSRGDLWGQGTLVTISS VL: ELDMTQTPSPVSAAVGGTVTIKCQSSQNVYDDDTLSWYQQKPGQPPKLLIYDASKLASGVPDRFSGSGSGTQFTLTISGVQCDDAATYYCLGVFHDGINNAFGGGTEVEIK", "Kd [pM]": 3730}

input: Can you share its Kd? I mean this binder: B4-87 (antibody, V domains shown, Rabbit monoclonal antibody) VH: QSVKESGGDLVKPGASLTLTCTASGFSFISTYWICWVRQAPGKGLELIACIYTGGSGSTYYASWAKGRFTISKTSSTTVTLQLNSLTAADTATYFCARALYVDYVDYDYIDLWGPGTLVTVSS VL: ELDLTQTPASVEAAVGGTVTIKCQASENIGSRLAWYQQKPGQPPKLLIYAASNLASGVSSRFKGSRSGTQFTLTISDLECADAAIYYCQCSYYGSTYVFGFGGGTEVEIK
output: 238

input: Entry B4-116-2 (antibody, V domains shown, Rabbit monoclonal antibody) VH: EQSVEESGGDLVKPGASLTLTCAASGFSFSSTYCMCWVRQAPGKGLEWIACIHGVSTNNRWYASWPKGRFTISKTSSTTVTLQMTSLTAADTATYFCARSDTDYEWGLSLWGPGTLVTISS VL: ELVMTQTPASVEAVVGGTVTIKCQASESIGSRLAWYQQKPGQRPKLLIYKASTLASGVPSRFSGSGSGTEFTLTVSDLECADVAAYYCQCAGQSSTWAFGGGTEVVVK please
output: 495

input: Entry B4-116-1 (antibody, V domains shown, Rabbit monoclonal antibody) VH: EQSVEESGGDLVKPGASLTLTCAASGFSFSSTYCMCWVRQAPGKGLEWIACIHGVSTNNRWYASWPKGRFTISKTSSTTVTLQMTSLTAADTATYFCARSDTDYEWGLSLWGPGTLVTISS VL: ELDLTQTPASVSEPVGGTVTIKCQASESIGSRLAWYQQKPGQRPKLLIYKASTLASGVPSRFSGSGSGTEFTLTVSDLECADVAAYYCQCAGQSSTWAFGGGTEVEIK please
output: 820

input: Entry B4-49 (antibody, V domains shown, Rabbit monoclonal antibody) VH: QSLEESGGDLVKPGASLTLTCTASGFDFSSSGWICWVRQAPGKGLELIACIYSGRSGSTYYASWAKGRVTISKTSSTTVTLQMTSLTAADTATYFCARALYVDYVDYDYIDLWGPGTLVTVSS VL: ELDLTQTPASVEAAVGGTVTIKCQASQSTGIRLAWYQQKPGQPPKLLMYATSNLASGVSSRFKGSGSGTEFTLTISDLECADAATYYCQYSYYGSSYVFDFGGGTEVEIK please
output: 23.3

input: Entry B4-86 (antibody, V domains shown, Rabbit monoclonal antibody) VH: EQSVESGGDLVKPEGSLTLTCTVSGFSFSSSYWICWVRQAPGKGLEWIGCIGTGSGSTYYGSWAKGRFTISKTSSTTVTLQMTSLTAADTATYFCVRGAGYSSYRLWGPGTLVTISS VL: ELDMTQTPASVSEPVGGTVTIKCQASESVSNWLAWYQQKPGQRPKLLIYGASTLESGVPSRFSGSGSGTEFTLTISNLECADAATYYCQQGYDWDNIDNAFGGGTEVVVK please
output: 344

Each recorded value in this set is attributed to patent US20210371518A1.
